This section presents compounds with their documented Dmax values.
# TARGET_SYSTEM: SMARCA2 (Homo sapiens, UniProt P51531)
# Sequence (P51531 whole entry): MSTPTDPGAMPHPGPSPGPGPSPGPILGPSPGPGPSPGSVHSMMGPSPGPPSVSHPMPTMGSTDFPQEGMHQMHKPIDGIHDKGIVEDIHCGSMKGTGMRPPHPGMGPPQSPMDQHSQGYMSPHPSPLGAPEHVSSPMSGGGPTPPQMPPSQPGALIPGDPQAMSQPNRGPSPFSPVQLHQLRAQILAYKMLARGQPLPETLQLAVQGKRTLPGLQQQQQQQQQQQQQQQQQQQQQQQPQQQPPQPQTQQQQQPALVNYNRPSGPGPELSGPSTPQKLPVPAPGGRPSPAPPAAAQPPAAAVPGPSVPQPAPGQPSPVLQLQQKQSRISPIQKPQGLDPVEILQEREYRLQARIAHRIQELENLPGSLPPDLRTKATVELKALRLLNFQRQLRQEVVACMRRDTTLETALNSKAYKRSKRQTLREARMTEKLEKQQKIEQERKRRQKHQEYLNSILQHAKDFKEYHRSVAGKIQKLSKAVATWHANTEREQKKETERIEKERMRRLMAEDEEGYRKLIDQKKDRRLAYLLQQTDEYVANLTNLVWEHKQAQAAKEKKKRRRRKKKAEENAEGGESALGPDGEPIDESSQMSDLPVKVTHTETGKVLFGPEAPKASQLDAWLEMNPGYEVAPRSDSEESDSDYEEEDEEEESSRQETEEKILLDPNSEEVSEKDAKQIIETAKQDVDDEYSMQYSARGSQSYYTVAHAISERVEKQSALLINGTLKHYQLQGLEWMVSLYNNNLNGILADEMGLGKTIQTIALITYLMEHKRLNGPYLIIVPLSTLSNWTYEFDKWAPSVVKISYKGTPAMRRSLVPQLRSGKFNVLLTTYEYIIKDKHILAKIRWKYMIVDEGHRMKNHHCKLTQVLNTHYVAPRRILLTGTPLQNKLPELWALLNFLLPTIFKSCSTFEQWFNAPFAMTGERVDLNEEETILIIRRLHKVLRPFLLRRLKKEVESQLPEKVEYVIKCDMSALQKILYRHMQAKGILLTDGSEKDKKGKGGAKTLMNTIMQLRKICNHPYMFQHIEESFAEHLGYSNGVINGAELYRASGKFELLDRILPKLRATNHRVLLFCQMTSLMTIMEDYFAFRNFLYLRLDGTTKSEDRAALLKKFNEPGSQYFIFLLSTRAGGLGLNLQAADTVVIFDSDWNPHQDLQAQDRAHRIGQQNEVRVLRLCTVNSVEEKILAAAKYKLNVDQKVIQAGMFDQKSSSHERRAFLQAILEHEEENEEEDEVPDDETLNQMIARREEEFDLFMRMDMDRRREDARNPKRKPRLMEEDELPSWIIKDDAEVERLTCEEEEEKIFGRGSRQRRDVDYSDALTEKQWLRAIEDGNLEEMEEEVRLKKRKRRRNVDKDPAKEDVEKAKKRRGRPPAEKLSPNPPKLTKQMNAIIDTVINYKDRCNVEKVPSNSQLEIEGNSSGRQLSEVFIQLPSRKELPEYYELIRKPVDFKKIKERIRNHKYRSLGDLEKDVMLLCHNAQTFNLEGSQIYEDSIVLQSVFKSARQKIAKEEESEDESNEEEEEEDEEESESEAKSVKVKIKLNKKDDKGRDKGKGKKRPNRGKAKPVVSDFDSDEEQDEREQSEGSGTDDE
# ASSAY_OVERVIEW: SMARCA2 Western blot MV4-11 degradation
# Format: cell-based
# Set-up: SMARCA2/SMARCA4 protein degradation selectivity in MV4-11 cells; endogenous in cells; host or cells: MV4-11
# MEASUREMENT_CONDITIONS: MV4-11 cells, 24 h; read-out: SMARCA2 MSD MV411 degradation 24 h: average Dmax %
ASSAY_READOUT: Dmax

- Cc1ncsc1-c1ccc(CNC(=O)[C@@H]2C[C@@H](O)CN2C(=O)[C@@H](NC(=O)C2CC3(C2)CC(N2CCC(c4ccnc(N5CCc6[nH]c7nnc(-c8ccccc8O)cc7c6[C@@H]5C)n4)CC2)C3)C(C)(C)C)cc1 (some centres unmarked): 70 to 90%
- Cc1ncsc1-c1ccc(CNC(=O)[C@@H]2C[C@@H](O)CN2C(=O)[C@@H](NC(=O)C2CC3(C2)CC(N2CCC(c4ccnc(N5CCc6[nH]c7nnc(-c8ccccc8O)cc7c6[C@H]5C)n4)CC2)C3)C(C)(C)C)cc1 (some centres unmarked): 50 to 70%

* * *

# TARGET_SYSTEM: UniProtKB P51531
# ASSAY_OVERVIEW: SMARCA2 Western blot MV4-11 degradation
# Assay type: cell-based
# Parameters: SMARCA2/SMARCA4 protein degradation selectivity in MV4-11 cells; endogenous in cells; host or cells: MV4-11
# MEASUREMENT_CONDITIONS: MV4-11 cells, 24 h; read-out: SMARCA2 MSD MV411 degradation 24 h: average Dmax %
Recorded Dmax values for a group of compounds are listed next.
ASSAY_READOUT: Dmax

* Cc1ncsc1-c1ccc(CNC(=O)[C@@H]2C[C@@H](O)CN2C(=O)[C@@H](NC(=O)[C@H]2CC3(C2)C[C@H](N2CCC(c4cnc(N5CCc6[nH]c7nnc(-c8ccccc8O)cc7c6[C@H]5C)nc4)CC2)C3)C(C)(C)C)cc1 (single isomer, unassigned) [I-40] | 70 to 90%
* Cc1ncsc1-c1ccc(CNC(=O)[C@@H]2C[C@@H](O)CN2C(=O)[C@@H](NC(=O)C2CC3(C2)CC(N2CCC(c4cnc(N5CCc6[nH]c7nnc(-c8ccccc8O)cc7c6[C@H]5C)nc4)CC2)C3)C(C)(C)C)cc1 (stereo partly drawn) [I-38] | 70 to 90%
* Cc1ncsc1-c1ccc(CNC(=O)[C@@H]2C[C@@H](O)CN2C(=O)[C@@H](NC(=O)C2CC3(C2)CC(N2CCC(c4cnc(N5CCc6[nH]c7nnc(-c8ccccc8O)cc7c6[C@@H]5C)nc4)CC2)C3)C(C)(C)C)cc1 (stereo partly drawn) [I-37] | 50 to 70%
